# credit: the supplement of paper PMC10567573

B1: ANKRD9 (parent)
chain: LLEDMRASEAFHWDERGRAAAYSP

Variants of: B1
PROTOCOL_TEXT: protein stability index of a GFP-peptide fusion (GPS, HEK-293T) (PSI 1-6); higher = more stable;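 also: lentivirally expressed fusions sorted by FACS into six bins by GFP to DsRed ratio, PSI derived from sequencing read proportions per bin multiplied by bin number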
MEASUREMENT_CONTEXT: c terminus: a fixed tail appended
Decision: protein stability index compared against 2; not below it gives true, below it gives false.

{"VARIANT_DESCRIPTOR": "S8H", "CATEGORY_LABEL": "true"}
{"VARIANT_DESCRIPTOR": "L1S", "CATEGORY_LABEL": "true"}

// inclusive: protein stability index at least 2? input: `R6C`
true
